Cited source: patent US5041567A

Please provide measured log10(MIC) for the entries that follow.
- Tested on: E. coli ESS
- measurementDescription: MIC against human bacteria in vitro
- Format: cell-based
- conditionLabel: Escherichia coli; E. coli ESS; 5% chocolated horse blood agar, 18 hours; read-out: MIC
Hey, these are logged values: log10 of MIC, µg/mL being the unit before logging.

The molecule C/C(=C\c1cc(-c2ccccc2)on1)C[C@@H]1OC[C@H](C[C@@H]2O[C@H]2[C@@H](C)[C@H](C)O)[C@@H](O)[C@H]1O [Example 34, 3-(1-Normon-2-yl)-5-phenylisoxazole A] , when measured on E. coli ESS, yielded log10(MIC) of 1.20

The molecule C/C(=C\c1ncc(-c2ccccc2[N+](=O)[O-])o1)C[C@@H]1OC[C@H](C[C@@H]2O[C@H]2[C@@H](C)[C@H](C)O)[C@@H](O)[C@H]1O [Example 26] , when measured on E. coli ESS, yielded log10(MIC) of 0.90

The molecule C/C(=C\c1ncc(-c2ccc(C(=O)O)cc2)o1)C[C@@H]1OC[C@H](C[C@@H]2O[C@H]2[C@@H](C)[C@H](C)O)[C@@H](O)[C@H]1O [Example 17] , when measured on E. coli ESS, yielded log10(MIC) of 1.20

The molecule C/C(=C\c1ncc(-c2ccc(C=O)cc2)o1)C[C@@H]1OC[C@H](C[C@@H]2O[C@H]2[C@@H](C)[C@H](C)O)[C@@H](O)[C@H]1O [Example 15] , when measured on E. coli ESS, yielded log10(MIC) of 1.20

The molecule C/C(=C\c1ncc(CCCCCCCCO)o1)C[C@@H]1OC[C@H](C[C@@H]2O[C@H]2[C@@H](C)[C@H](C)O)[C@@H](O)[C@H]1O [Example 19] , when measured on E. coli ESS, yielded log10(MIC) of 1.20

The molecule C/C(=C\c1ncc(-c2ccc(Br)cc2)o1)C[C@@H]1OC[C@H](C[C@@H]2O[C@H]2[C@@H](C)[C@H](C)O)[C@@H](O)[C@H]1O [Example 18] , when measured on E. coli ESS, yielded log10(MIC) of 0.90

The molecule C/C(=C\c1ncc(-c2ccsc2)o1)C[C@@H]1OC[C@H](C[C@@H]2O[C@H]2[C@@H](C)[C@H](C)O)[C@@H](O)[C@H]1O [Example 20] , when measured on E. coli ESS, yielded log10(MIC) of 0.60

The molecule C/C(=C/c1ncc(-c2ccccc2)o1)C[C@@H]1OC[C@H](C[C@@H]2O[C@H]2[C@@H](C)[C@H](C)O)[C@@H](O)[C@H]1O [Example 2] , when measured on E. coli ESS, yielded log10(MIC) of 1.40

The molecule C/C(=C\c1cc(-c2ccccc2)no1)C[C@@H]1OC[C@H](C[C@@H]2O[C@H]2[C@@H](C)[C@H](C)O)[C@@H](O)[C@H]1O [Example 31, 5-(1-Normon-2-yl)-3-phenylisoxazole A] , when measured on E. coli ESS, yielded log10(MIC) of 1.81

The molecule C/C(=C\c1nc(-c2ccccc2)c(-c2ccccc2)o1)C[C@@H]1OC[C@H](C[C@@H]2O[C@H]2[C@@H](C)[C@H](C)O)[C@@H](O)[C@H]1O [Example 41, 4,5-Diphenyl-2-(1-normon-2-yl)oxazole A] , when measured on E. coli ESS, yielded log10(MIC) of 1.70

The molecule C/C(=C\c1ncc(-c2ccc([S+](C)[O-])cc2)o1)C[C@@H]1OC[C@H](C[C@@H]2O[C@H]2[C@@H](C)[C@H](C)O)[C@@H](O)[C@H]1O (some centres unmarked) [Example 11] , when measured on E. coli ESS, yielded log10(MIC) of 2.11

The molecule C/C(=C\c1ncc(-c2cccc(C#N)c2)o1)C[C@@H]1OC[C@H](C[C@@H]2O[C@H]2[C@@H](C)[C@H](C)O)[C@@H](O)[C@H]1O [Example 5] , when measured on E. coli ESS, yielded log10(MIC) of 0.08

The molecule C/C(=C\c1ncc(-c2ccc(C#N)cc2)o1)C[C@@H]1OC[C@H](C[C@@H]2O[C@H]2[C@@H](C)[C@H](C)O)[C@@H](O)[C@H]1O [Example 21] , when measured on E. coli ESS, yielded log10(MIC) of 0.60

The molecule C/C(=C\c1ncc(-c2ccccc2)o1)C[C@@H]1OC[C@H](C[C@@H]2O[C@H]2[C@@H](C)[C@H](C)O)[C@@H](O)[C@H]1O [Example 1, 2-(1-normon-2-yl)-5-phenyloxazole A] , when measured on E. coli ESS, yielded log10(MIC) of 1.00

The molecule COC(=O)c1ccc(-c2cnc(/C=C(\C)C[C@@H]3OC[C@H](C[C@@H]4O[C@H]4[C@@H](C)[C@H](C)O)[C@@H](O)[C@H]3O)o2)cc1 [Example 16] , when measured on E. coli ESS, yielded log10(MIC) of 1.51

The molecule C/C(=C\c1cc(C)on1)C[C@@H]1OC[C@H](C[C@@H]2O[C@H]2[C@@H](C)[C@H](C)O)[C@@H](O)[C@H]1O [Example 33, 5-Methyl-3-(1-normon-2-yl) isoxazole A] , when measured on E. coli ESS, yielded log10(MIC) of 0.90

The molecule C/C(=C\c1ncc(-c2ccc([N+](=O)[O-])cc2)o1)C[C@@H]1OC[C@H](C[C@@H]2O[C@H]2[C@@H](C)[C@H](C)O)[C@@H](O)[C@H]1O [Example 3] , when measured on E. coli ESS, yielded log10(MIC) of -0.30
